tested.target: β-lactamase E104K (Escherichia coli, UniProt P62593, E102K)
test.description: Isothermal titration calorimetry, binding enthalpy, E104K mutant
property.label: ΔH E104K (kcal/mol)
The answer is to be given in kcal/mol; state only the numeric part.

The examples below pair each entry with its known result.
# structure, reading.unit, ΔH E104K
rows = [
    ("O=C(OCc1ccccc1)c1cc(B(O)O)cc([N+](=O)[O-])c1", "kcal/mol", -3.5),
    ("O=C(Oc1c(Cl)cccc1[N+](=O)[O-])c1cc(B(O)O)cc([N+](=O)[O-])c1", "kcal/mol", -1.896),
    ("N#Cc1ccccc1OC(=O)c1cc(B(O)O)cc([N+](=O)[O-])c1", "kcal/mol", -6.397),
    ("COC(=O)c1cc(B(O)O)cc([N+](=O)[O-])c1", "kcal/mol", -4.5),
    ("O=C(Oc1ccccc1[N+](=O)[O-])c1cc(B(O)O)cc([N+](=O)[O-])c1", "kcal/mol", -3.9),
]

IN: Bench note: what ΔH E104K did O=C(Oc1ccccc1Cl)c1cc(B(O)O)cc([N+](=O)[O-])c1 show?
OUT: -2.756

---

tested.target: β-lactamase R244S (Escherichia coli, UniProt P62593, R241S)
test.description: Isothermal titration calorimetry, binding enthalpy, R244S mutant
Catalogue of ΔH R244S values
The answer is to be given in kcal/mol; state only the numeric part.

The examples below pair each entry with its known result.
# molecule, tested.target, reported.result
measured = [
    ("N#Cc1ccccc1OC(=O)c1cc(B(O)O)cc([N+](=O)[O-])c1 [Compound (1g)]", "β-lactamase R244S (Escherichia coli, UniProt P62593, R241S)", -8.2),
    ("O=C(OCc1ccccc1)c1cc(B(O)O)cc([N+](=O)[O-])c1 [Compound F1201]", "β-lactamase R244S (Escherichia coli, UniProt P62593, R241S)", -6.5),
    ("O=C(Oc1ccccc1[N+](=O)[O-])c1cc(B(O)O)cc([N+](=O)[O-])c1 [Compound (1b)]", "β-lactamase R244S (Escherichia coli, UniProt P62593, R241S)", -9.5),
    ("COC(=O)c1cc(B(O)O)cc([N+](=O)[O-])c1 [Compound F1212]", "β-lactamase R244S (Escherichia coli, UniProt P62593, R241S)", -8.9),
    ("O=C(Oc1ccccc1Cl)c1cc(B(O)O)cc([N+](=O)[O-])c1 [Compound (1j)]", "β-lactamase R244S (Escherichia coli, UniProt P62593, R241S)", -6.877),
]

IN: Bench note: what ΔH R244S did O=C(Oc1c(Cl)cccc1[N+](=O)[O-])c1cc(B(O)O)cc([N+](=O)[O-])c1 [Compound (1h)] show?
OUT: -11.931

---

tested.target: AmpC β-lactamase (Escherichia coli)
Construct: made in house; host or cells: E. coli BL21 (DE3)
Sequence (P00811 20-377): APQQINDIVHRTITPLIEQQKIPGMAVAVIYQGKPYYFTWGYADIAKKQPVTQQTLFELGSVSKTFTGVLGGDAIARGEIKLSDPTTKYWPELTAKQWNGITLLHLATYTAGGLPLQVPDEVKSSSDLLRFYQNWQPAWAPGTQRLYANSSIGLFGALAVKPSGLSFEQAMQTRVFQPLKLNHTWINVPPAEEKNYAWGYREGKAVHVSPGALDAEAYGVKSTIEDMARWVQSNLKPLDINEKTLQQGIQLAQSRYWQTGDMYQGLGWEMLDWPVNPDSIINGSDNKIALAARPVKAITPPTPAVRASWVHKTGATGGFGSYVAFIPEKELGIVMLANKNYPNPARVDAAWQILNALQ
settings: binding to AmpC; ITC
property.label: ΔG (kcal/mol)
The answer is to be given in kcal/mol; state only the numeric part.

# compound, property.label, reported.result
data = [
    ("O=C(Oc1cccc(B(O)O)c1)c1c(Cl)cccc1Cl", "ΔG", -7.757),
    ("O=C(Oc1ccc(OC(=O)c2cc(B(O)O)cc([N+](=O)[O-])c2)c(Cl)c1)c1cc(B(O)O)cc([N+](=O)[O-])c1", "ΔG", -7.736),
    ("O=C(Oc1cccc(B(O)O)c1)c1cc(B(O)O)cc([N+](=O)[O-])c1", "ΔG", -7.221),
    ("O=C(OCc1ccccc1COC(=O)c1cc(B(O)O)cc([N+](=O)[O-])c1)c1cc(B(O)O)cc([N+](=O)[O-])c1 [Compound (10a)]", "ΔG", -8.59),
    ("CC(C)(C)c1cc(OC(=O)c2cc(B(O)O)cc([N+](=O)[O-])c2)ccc1OC(=O)c1cc(B(O)O)cc([N+](=O)[O-])c1", "ΔG", -7.098),
]

IN: Bench note: what ΔG did O=C(Oc1cc(OC(=O)c2cc(B(O)O)cc([N+](=O)[O-])c2)cc(OC(=O)c2cc(B(O)O)cc([N+](=O)[O-])c2)c1)c1cc(B(O)O)cc([N+](=O)[O-])c1 [Compound (12a)] show?
OUT: -7.231
